Molecular target: Lipoprotein-Related Phospholipase A2 (Lp-PLA2) in Human Plasma (Homo sapiens)
Construct: 40 μL of equally-divided and thawed mixed human plasma is pre-added
Sequence (Q13093 22-441): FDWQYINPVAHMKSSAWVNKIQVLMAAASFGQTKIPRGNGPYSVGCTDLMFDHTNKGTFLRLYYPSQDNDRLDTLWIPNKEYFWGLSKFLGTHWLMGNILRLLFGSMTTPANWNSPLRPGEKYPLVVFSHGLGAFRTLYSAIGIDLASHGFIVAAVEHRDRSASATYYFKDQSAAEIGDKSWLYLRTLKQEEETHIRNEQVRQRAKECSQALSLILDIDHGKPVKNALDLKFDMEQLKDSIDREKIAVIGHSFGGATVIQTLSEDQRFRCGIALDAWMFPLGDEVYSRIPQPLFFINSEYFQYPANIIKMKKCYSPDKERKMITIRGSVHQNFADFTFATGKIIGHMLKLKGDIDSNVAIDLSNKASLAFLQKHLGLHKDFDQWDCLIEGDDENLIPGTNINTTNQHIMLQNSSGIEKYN
Assay: Determination of Lp-PLA2 in human plasma (Thio-PAF assay)
Settings: mixed human plasma, 2-thio-PAF substrate, 30 minutes pre-incubation at room temperature
Please note: IC50 exactly at 20 nM is rule not met. Only values below 20 nM get rule met.

QUERY: For N#Cc1cc(COc2cc3n(c(=O)n2)CCC24CC(CN32)C4)ccc1F [Example 21] , is the recorded IC50 below the cut-off of 20 nM?
RESULT: rule not met

QUERY: # TODO verify IC50 < 20 nM strictly for this molecule: CCc1c(OCc2ccc(Oc3ccnc(C(F)(F)F)c3)c(F)c2)nc(=O)n2c1N1C[C@@H]3C[C@@]1(CC2)CO3 [Example 60]
RESULT: rule met

QUERY: Field: below-cutoff. Rule: recorded IC50 strictly less than 20 nM. Subject: Cc1cc(Oc2c(F)cc(COc3cc4n(c(=O)n3)CCC3(C)CCCN43)cc2F)ccn1 (centres unmarked) [Example 35]
RESULT: rule not met

QUERY: Item O=c1nc(OCc2ccc(Oc3ccnc(C(F)(F)F)c3)c(F)c2)c(F)c2n1CC[C@]13CO[C@H](CN21)C3 [Example 57] : IC50 beneath 20 nM, strictly?
RESULT: rule met

QUERY: Could you please tell me whether IC50 recorded for O=c1nc(OCc2ccc(Oc3ccnc(C(F)(F)F)c3)c(F)c2)cc2n1CCC13CC(CN21)C3 [Example 13] is less than 20 nM?
RESULT: rule met
